Would you mind telling me the reported bioavailability of each entry?
procedure_text: Oral bioavailability in rat at 10 mg/kg
Type: ADME, organism-based
experimental_parameters: in vivo
Answers are plain numbers, in %.

Known bioavailability results, listed for orientation:
>>> df
                                        smi  obs_value
0  CCN(C(=O)C1CC1)c1cc(-c2ccc(N3CCN(CC4CC4)CC3)nc2)cc(C(=O)NCc2c(C)cc(C)[nH]c2=O)c1C        9.4
1  CCN(C(=O)C1CCCC1)c1cc(-c2ccc(CN3CCOCC3)cc2)cc(C(=O)NCc2c(C)cc(C)[nH]c2=O)c1C       15.1
2  CCN1CCN(c2ccc(-c3cc(C(=O)NCc4c(C)cc(C)[nH]c4=O)c(C)c(N(CC)C(=O)C4CC4)c3)cc2)CC1         13

Batch request: bioavailability per item, same order as input.
1. CCN(C(=O)C1CC1)c1cc(-c2ccc(CN3CCOCC3)cc2)cc(C(=O)NCc2c(C)cc(C)[nH]c2=O)c1C
2. CCN(C(=O)C1CC1)c1cc(-c2ccc(N3CCN(CC4CC4)CC3)nc2C)cc(C(=O)NCc2c(C)cc(C)[nH]c2=O)c1C

Result string:
[10.1, 31]

Query string: Which bioavailability is listed for "CCN(C(=O)C1CC1)c1cc(-c2cnc(N3CCN(CC4CC4)CC3)c(C)c2)cc(C(=O)NCc2c(C)cc(C)[nH]c2=O)c1C" ?
Result string: 4.8
